Data origin: patent US10968215B2

# targetUnderTest: PRC2 complex (EZH2 Y641F/EED/SUZ12/RbAp48/AEBP2) (Homo sapiens (Human), UniProt Q15910, Y641F)
# Sequence (Q15910 whole entry Y641F): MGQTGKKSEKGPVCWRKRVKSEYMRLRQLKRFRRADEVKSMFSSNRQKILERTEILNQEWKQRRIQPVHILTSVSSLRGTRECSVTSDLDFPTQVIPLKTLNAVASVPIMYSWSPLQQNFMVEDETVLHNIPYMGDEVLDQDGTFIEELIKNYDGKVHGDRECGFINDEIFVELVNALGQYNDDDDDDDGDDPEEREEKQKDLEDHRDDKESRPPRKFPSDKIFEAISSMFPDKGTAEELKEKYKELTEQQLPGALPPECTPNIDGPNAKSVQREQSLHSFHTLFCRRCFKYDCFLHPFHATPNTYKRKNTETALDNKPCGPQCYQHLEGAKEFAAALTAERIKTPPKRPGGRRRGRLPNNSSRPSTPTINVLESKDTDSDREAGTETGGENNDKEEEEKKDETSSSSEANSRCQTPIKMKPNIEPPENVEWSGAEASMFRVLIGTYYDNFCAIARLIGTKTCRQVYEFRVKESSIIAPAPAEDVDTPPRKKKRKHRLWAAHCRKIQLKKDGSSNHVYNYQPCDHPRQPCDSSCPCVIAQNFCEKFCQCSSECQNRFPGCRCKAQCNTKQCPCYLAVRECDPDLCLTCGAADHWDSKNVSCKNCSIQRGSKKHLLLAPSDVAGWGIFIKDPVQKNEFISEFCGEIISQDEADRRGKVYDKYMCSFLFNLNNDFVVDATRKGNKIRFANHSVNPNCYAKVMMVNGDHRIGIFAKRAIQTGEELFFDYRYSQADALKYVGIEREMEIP
# Sequence (O75530 whole entry partner): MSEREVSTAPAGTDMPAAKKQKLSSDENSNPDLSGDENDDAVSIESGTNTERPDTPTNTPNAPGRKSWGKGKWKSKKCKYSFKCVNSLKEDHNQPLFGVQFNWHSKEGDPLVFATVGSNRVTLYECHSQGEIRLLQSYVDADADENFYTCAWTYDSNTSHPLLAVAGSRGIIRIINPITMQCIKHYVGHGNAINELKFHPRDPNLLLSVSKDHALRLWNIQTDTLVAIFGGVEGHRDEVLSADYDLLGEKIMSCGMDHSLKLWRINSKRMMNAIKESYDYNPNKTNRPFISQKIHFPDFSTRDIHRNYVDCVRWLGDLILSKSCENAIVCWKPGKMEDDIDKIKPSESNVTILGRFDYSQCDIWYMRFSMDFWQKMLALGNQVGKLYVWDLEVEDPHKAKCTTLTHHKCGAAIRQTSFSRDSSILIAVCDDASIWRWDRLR
# Sequence (Q15022 whole entry partner): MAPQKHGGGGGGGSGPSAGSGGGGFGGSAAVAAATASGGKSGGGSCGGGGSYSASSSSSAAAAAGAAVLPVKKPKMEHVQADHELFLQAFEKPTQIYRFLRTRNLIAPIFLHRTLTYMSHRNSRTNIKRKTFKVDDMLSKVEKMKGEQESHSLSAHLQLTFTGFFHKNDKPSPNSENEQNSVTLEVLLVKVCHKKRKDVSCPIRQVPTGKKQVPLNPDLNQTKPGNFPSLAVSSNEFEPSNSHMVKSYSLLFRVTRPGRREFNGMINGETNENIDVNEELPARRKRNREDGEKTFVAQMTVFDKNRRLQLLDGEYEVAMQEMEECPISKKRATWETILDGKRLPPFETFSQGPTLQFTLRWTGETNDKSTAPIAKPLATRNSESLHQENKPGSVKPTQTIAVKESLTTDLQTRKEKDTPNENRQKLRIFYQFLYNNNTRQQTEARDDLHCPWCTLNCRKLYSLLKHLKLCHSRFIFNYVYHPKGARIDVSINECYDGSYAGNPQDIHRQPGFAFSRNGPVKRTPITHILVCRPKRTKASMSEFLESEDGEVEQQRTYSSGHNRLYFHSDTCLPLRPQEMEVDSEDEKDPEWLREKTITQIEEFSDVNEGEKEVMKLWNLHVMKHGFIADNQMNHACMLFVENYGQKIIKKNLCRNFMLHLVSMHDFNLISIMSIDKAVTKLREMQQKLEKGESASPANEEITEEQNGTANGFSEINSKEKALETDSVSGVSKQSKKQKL
# Sequence (Q09028 whole entry partner): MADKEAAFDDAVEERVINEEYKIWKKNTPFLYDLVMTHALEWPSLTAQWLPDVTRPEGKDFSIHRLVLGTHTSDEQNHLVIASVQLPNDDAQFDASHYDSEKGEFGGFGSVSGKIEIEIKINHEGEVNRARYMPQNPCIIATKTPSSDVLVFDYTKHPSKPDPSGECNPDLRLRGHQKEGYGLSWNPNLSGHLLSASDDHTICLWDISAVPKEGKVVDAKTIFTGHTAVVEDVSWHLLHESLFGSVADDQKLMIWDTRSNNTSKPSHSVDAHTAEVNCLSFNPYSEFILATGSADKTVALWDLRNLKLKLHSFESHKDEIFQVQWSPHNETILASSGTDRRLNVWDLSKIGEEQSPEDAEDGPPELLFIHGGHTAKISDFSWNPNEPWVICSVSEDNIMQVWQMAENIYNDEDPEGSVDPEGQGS
# Sequence (Q6ZN18 whole entry partner): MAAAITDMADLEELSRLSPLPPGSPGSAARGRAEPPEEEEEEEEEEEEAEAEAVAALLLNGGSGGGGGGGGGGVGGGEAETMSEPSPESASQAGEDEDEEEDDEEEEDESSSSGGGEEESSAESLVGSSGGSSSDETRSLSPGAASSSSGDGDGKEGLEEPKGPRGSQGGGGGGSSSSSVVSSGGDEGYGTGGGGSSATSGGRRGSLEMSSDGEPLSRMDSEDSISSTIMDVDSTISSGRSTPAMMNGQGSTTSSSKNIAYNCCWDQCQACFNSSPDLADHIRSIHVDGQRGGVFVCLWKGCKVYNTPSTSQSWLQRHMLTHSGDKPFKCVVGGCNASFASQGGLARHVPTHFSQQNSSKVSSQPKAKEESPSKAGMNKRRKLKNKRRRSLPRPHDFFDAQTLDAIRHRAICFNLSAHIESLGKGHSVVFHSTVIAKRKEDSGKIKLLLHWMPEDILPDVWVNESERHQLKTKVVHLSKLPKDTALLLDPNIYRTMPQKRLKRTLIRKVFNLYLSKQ
# assayInfo: Activity of a compound to PRC2 complex (EZH2 Y641F), HTRF
The entries below come with measured IC50 values attached.
reportedEndpoint: IC50

>>> print(df.to_string())
                                    compound  reportedendpoint          result
 0  CCN(c1c(C)c(C(=O)NCc2c(C)cc(C)[nH]c2=O)cc2cc(Br)cn12)C1CCOCC1              IC50  100 to 1000 nM
 1  COc1cc(C)[nH]c(=O)c1CNC(=O)c1cc2c(-c3ccc(F)cc3)ccn2c(C(C)N2CCN(CC(F)(F)F)CC2)c1C (centres unmarked)              IC50        < 100 nM
 2  Cc1cc(C)c(CNC(=O)c2cc3cc(-c4ccncc4)cn3c(C(C)N3CCC(N(C)C)CC3)c2C)c(=O)[nH]1 (centres unmarked)              IC50        < 100 nM
 3  CCCc1cc(C)[nH]c(=O)c1CNC(=O)c1cc2c(-c3ccc(N)nc3)ccn2c(C(C)N2CCN(CC(F)(F)F)CC2)c1C (centres unmarked)              IC50        < 100 nM
 4  CCc1cc(-c2ccn3c(C(C)N4CCN(CC(F)(F)F)CC4)c(C)c(C(=O)NCc4c(OC)cc(C)[nH]c4=O)cc23)ccn1 (centres unmarked)              IC50        < 100 nM
 5  COc1ccc(-c2cc3cc(C(=O)NCc4c(C)cc(C)[nH]c4=O)c(C)c(C(C)N4CCOCC4)n3c2)cc1 (centres unmarked)              IC50  100 to 1000 nM
 6  COc1cc(C)[nH]c(=O)c1CNC(=O)c1cc2c(-c3cnc(C)nc3)ccn2c(C(C)N2CCN(CC(F)(F)F)CC2)c1C (centres unmarked)              IC50        < 100 nM
 7  Cc1cc(C)c(CNC(=O)c2cc3c(-c4ccc(N)nc4)ccn3c(C(C)N3CCN(CC(F)(F)F)CC3)c2C)c(=O)[nH]1 (centres unmarked)              IC50        < 100 nM
 8  Cc1cc(C)c(CNC(=O)c2cc3cc(-c4cncs4)cn3c(C(C)N3CCC(N(C)C)CC3)c2C)c(=O)[nH]1 (centres unmarked)              IC50        < 100 nM
 9  Cc1cc(C)c(CNC(=O)c2cc3cc(Br)cn3c(C(C)N3CCNCC3)c2C)c(=O)[nH]1 (centres unmarked)              IC50  100 to 1000 nM
10  COc1cc(C)[nH]c(=O)c1CNC(=O)c1cc2c(-c3ccnc(N(C)C)c3)ccn2c(C(C)N2CCN(CC(F)(F)F)CC2)c1C (centres unmarked)              IC50        < 100 nM
